# assay.target: T1, human IL-33 (R&D Systems, #3625-IL-010/CF) (human, UniProt O95760 112-270)
# T1 construct: also called hIL-33; huIL-33
# T1 sequence (looked up): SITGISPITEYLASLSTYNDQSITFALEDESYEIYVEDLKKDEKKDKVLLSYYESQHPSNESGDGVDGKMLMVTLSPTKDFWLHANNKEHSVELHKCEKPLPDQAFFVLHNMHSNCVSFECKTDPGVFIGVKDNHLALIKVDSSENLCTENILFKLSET
# procedure.text: SPR Biacore T200, 37 C
The binders listed here are annotated with their kon.
Just the number in M⁻¹ s⁻¹, nothing appended.

1. H1M9559N (antibody, IgG1, V domains shown, also called RG1) VH: QVQLVESGGGVVQPGRSLRLSCAASGFTFSSYGMHWVRQAPGKGLEWVAVIWYDGRNKYYTDSVKGRFTISRDNSKNTLYLQMDSLRAEDTAVYYCARERYISSYYGGFDPWGQGALVTVSS VL: DIQMTQSPSSVSASVGDRVTITCRASQGISSWLAWYQQKPGKAPKVLIYAASSLQSGVPSRFSGSGSGTDFTLTISSLQPEDFATYYCQQANSFPFTFGPGTKLDIK : 374000

Prompt: Quick one: kon for H4H9659P (antibody, IgG4, V domains shown, also called RG7) VH: QVQLVQSGAEVKKPGASVKVSCKASGYTFNSYGISWVRQAPGQGLEWMGWISSHNGNSHYVQKFQGRVSMTTDTSTSTAYMELRSLRSDDTAVYYCARHSYTTSWYGGFDYWGQGTLVTVSS VL: DIQMTQSPSSVSASVGDRVTITCRASQGFSSWLAWYQQKPGKAPQLLIYAASSLQSGVPSRFSGSGSGSDFTLTISSLQPEDFATYYCQQANSFPLTFGGGTKVEIK ?
Response: 1.08e+06

Prompt: Quick one: kon for H1M9566N (antibody, IgG1, V domains shown, also called RG2) VH: EVQLLESGGDLVQPGGSLRLSCAASGFTFSSYAMSWVRQAPGKGLEWVSVISGSGSSTDYADSVKGRFTISRDNSRDTLHLQMNSLRAEDTAVYYCAKTFYYFYGLDVWGQGTTVTVSS VL: DIQMTQSPSSLSASLRDRVTITCRASQGISNYLAWYQQKPGKVPKVLIYAASTLQSGVPSRFSGSGSGTVFTLTISSLQTEDVATYYCQKYSSAPFTFGPGTKVDIK ?
Response: 129000

Prompt: Quick one: kon for 10C12.38.H6.87Y.58I IgG4 (antibody, V domains shown, also called anti-IL33 10C12.38.H6.87Y.58I IgG4) VH: EVQLVESGGGLVQPGGSLRLSCAASGFTFSSFSMSWVRQAPGKGLEWVATISGGKTFTDYVDSVKGRFTISRDDSKNTLYLQMNSLRAEDTAVYYCTRANYGNWFFEVWGQGTLVTVSS VL: EIVLTQSPATLSLSPGERATLSCRASESVAKYGLSLLNWFQQKPGQPPRLLIFAASNRGSGIPARFSGSGSGTDFTLTISSLEPEDFAVYYCQQSKEVPFTFGQGTKVEIKR ?
Response: 6.16e+06

Prompt: Quick one: kon for H4H9629P (antibody, IgG4, V domains shown, also called RG4) VH: EVQLVESGGGLVQPGGSLRLSCAASGFTFRSFAMSWVRQAPGKGLELVSDLRTSGGSTYYADSVKGRLTISRDNSKNTLYLQMNSLRAEDTAVYYCAKSHYSTSWFGGFDYWGQGTLVTVSS VL: DIQMTQSPSSVSASVGDRVTITCRASQGFSSWLAWYQQKPGKAPKLLIYAASSLQSGVPSRFSGSGSGTDFTLTITNLQPEDFATYYCQQANSFPLTFGGGTKVEIK ?
Response: 2.82e+06

Prompt: Quick one: kon for H4H9640P (antibody, IgG4, V domains shown, also called RG6) VH: QVQLQESGPGLVKPSETLSLTCTVSGGSISSYYWSWIRQPPGKGLELIGYIYYSGSTNYNPSLKSRVTISVDTSKNHFSLKLSSVTAADTAVYYCARSQYTSSWYGSFDIWGQGTMVTVSS VL: DIQMTQSPSSVSASVGDRVTITCRASQGISTWLAWFQQKPGKAPKLLIYAASTLQGGVPSRFSGSGSGPEFTLTISSLQPEDFATYYCQQANSFPWTFGQGTKVEIK ?
Response: 1.74e+06

Prompt: Quick one: kon for H4H9633P (antibody, IgG4, V domains shown, also called RG5) VH: EVQLVESGGGLVQPGGSLRLSCAASGFTFSSYVMSWVRQAPGKGLEWVSSISGNGGSTNYADSVKGRFTISRDNSKNTLFLEMNSLRAEDTAVYYCAKSLGTTTTFLGFDYWGQGTLVTVSS VL: DIQMTQSPSSVSASVGDRVTITCRASQGISSWLAWYQQKPGKAPKLLIYAASSLQSGVPSRFSGSGSGTYFTLTISSLQPEDFATYYCQQANSFPLTFGGGTKVEIK ?
Response: 1.16e+06

Reference source: patent US20190092852A1
